Several reports have described IC50 for BRD4 (Homo sapiens (Human)); a selection of those results is presented here.

- COMPOUND: "CCc1nn(C2CC2)c2c1[C@@H](c1ccc(Cl)cc1)N(c1cc(C)c3nnc(C)n3c1)C2=O"
  STUDY TARGET: "BRD4 (Homo sapiens (Human))"
  IC50: "< 11 nM"

Param item: Cc1cc(N2C(=O)c3cc(-c4cccc(=O)n4C)n(C)c3C2c2ccc(Cl)cc2)cn(C)c1=O (stereo not drawn) ; param system: BRD4 (Homo sapiens (Human)); output IC50: 110 nM

Test item CC(=O)c1ccc2c3ncc(-c4c(C)noc4C)cc3n(C(c3ccccc3)C3CCOCC3)c2n1 (stereo not drawn) ; BRD4 (Homo sapiens (Human)); reported IC50 was < 2 nM

----------
Record set: IC50 | BRD4 (Homo sapiens (Human), UniProt O60885) | literature, multiple sources.
EXPERIMENTAL READOUT: IC50 (µM)

As a guide, the following entries are already answered.
- MOLECULE: "Cc1cc(N2C(=O)c3c(C4CC4)nn(C)c3C2c2ccc(Cl)cc2)cn(C)c1=O (stereo not drawn)"
  IC50, µM: 0.028
- MOLECULE: "COc1ncccc1-n1nc(C)c2c1C(=O)N(c1cc(C)c(=O)n(C)c1)[C@@H]2c1ccc(Cl)cc1"
  IC50, µM: 0.036

I: Cc1cnc(Nc2ccc(N3CCN(C)CC3)c(F)c2)cc1Nc1cccc(NS(=O)(=O)C(C)(C)C)c1
II: Cc1cc(N2C(=O)c3[nH]c(C4CC4)nc3C2c2ccc(Cl)cc2)cn(C)c1=O (stereo not drawn)
Between I and II , which one shows the larger IC50 value? Pick one and reply with its label.
I

A: COc1cc(C(F)(F)F)ccc1-c1nc2c(n1C(C)C)C(c1ccc(Cl)cc1)N(c1cc(C)c3nnc(C(F)F)n3c1)C2=O (stereo not drawn)
B: CCn1nc2c(c1C)C(c1ccc(Cl)cc1)N(c1cc(C)c3nnc(C)n3c1)C2=O (stereo not drawn)
C: Cc1cnc(Nc2cc(F)cc(N3CCN(C)CC3)c2)nc1Nc1cccc(NS(=O)(=O)C(C)(C)C)c1
Sort these molecules on IC50 so the largest reading comes first. Lab note: final answer is the ordered label list.
C, B, A

a: COc1ncc(-n2nc(C)c3c2C(=O)N(c2cc(C)c(=O)n(C)c2)[C@@H]3c2ccc(Cl)cc2)c(OC)n1
b: Cc1cc(N2C(=O)c3n[nH]cc3C2c2ccc(Cl)cc2)cn(C)c1=O (stereo not drawn)
Param pair: a , b . Output: the one whose IC50 is numerically greater. // return label of chosen record
b
(b: 0.15 µM, a: 0.025 µM)

----------
Values of IC50 for BRD4 (Homo sapiens (Human), UniProt O60885), collected from a number of published sources:
EXPERIMENTAL READOUT: IC50 (nM)

- COMPOUND: "COc1ncc(-c2cc3c(n2C)C(c2ccc(Cl)cc2)N(c2cc(C)c(=O)n(C)c2)C3=O)c(OC)n1 (centres unmarked)"
  STUDY TARGET: "BRD4 (Homo sapiens (Human), UniProt O60885)"
  IC50 [nM]: 40

1: Cc1cc(N2C(=O)c3nc(-c4ccc[nH]4)n(C(C)C)c3C2c2ccc(Cl)cc2)cn(C)c1=O (centres unmarked)
2: Cc1cc(N2C(=O)c3c(C4CC4)cn(C)c3C2c2ccc(Cl)cc2)cn(C)c1=O (centres unmarked)
3: CC(=O)Nc1cn(C)c2c1C(=O)N(c1cc(C)c3nnn(C)c3c1)C2c1ccc(Cl)cc1 (centres unmarked)
4: Cc1nn(C(C)C)c2c1[C@H](c1ccc(Cl)cc1)N(c1cc(C)c(=O)n(C)c1)C2=O
Sort the 4 compounds by IC50; largest first, smallest last. Please, when replying, give the labels in the order that was requested.
4, 1, 2, 3
